These data points were gathered from ChEMBL document CHEMBL4152201.

Tested on: SH-SY5Y
Experiment: Neuroprotective activity against H2O2-induced oxidative stress in human SH-SY5Y cells assessed as cell viability at 12.5 uM pre-incubated for 1 hr followed by H2O2 addition and measured after 4 hrs by MTT assay relative to control
Format: functional
Settings: read-out: Activity
value_type: viability at 12.5 µM (%)
# output: bare number, implied unit %

COc1ccc(Cn2cc(CNC(=O)[C@@H](C)CC[C@H]3O[C@H]4C[C@H]5[C@@H]6CC[C@@H]7C[C@@H](OCc8ccccc8)CC[C@]7(C)[C@H]6CC[C@]5(C)[C@H]4[C@@H]3C)nn2)cc1 = 71.8
Cc1c(C)c2c(c(C)c1O)CCC(C)(C(=O)O)O2 (centres undefined) [TROLOX] = 78.4
C[C@H]1CC[C@@]2(OC1)O[C@H]1C[C@H]3[C@@H]4CC[C@@H]5C[C@@H](O)CC[C@]5(C)[C@H]4CC[C@]3(C)[C@H]1[C@@H]2C [SARSASAPOGENIN] = 68.2

Consider the additional compound presented here.
# lookup: "C[C@H]1[C@H]2[C@H](C[C@H]3[C@@H]4CC[C@@H]5C[C@@H](OCc6ccccc6)CC[C@]5(C)[C@H]4CC[C@]23C)O[C@@H]1CC[C@H](C)C(=O)NCc1cn(Cc2cscn2)nn1" on SH-SY5Y, viability at 12.5 µM = 71.6

---

Tested on: SH-SY5Y
Experiment: Neuroprotective activity against H2O2-induced oxidative stress in human SH-SY5Y cells assessed as cell viability at 50 uM pre-incubated for 1 hr followed by H2O2 addition and measured after 4 hrs by MTT assay relative to control
Type: functional
Settings: read-out: Activity
Measured viability at 50 µM, listed per entry for reference.
Give the figure together with its unit, number first.

Examples with their reported viability at 50 µM follow.
C[C@H]1[C@H]2[C@H](C[C@H]3[C@@H]4CC[C@@H]5C[C@@H](OCc6ccccc6)CC[C@]5(C)[C@H]4CC[C@]23C)O[C@@H]1CC[C@H](C)C(=O)NCc1cn(Cc2cscn2)nn1 = 84.9%
Cc1c(C)c2c(c(C)c1O)CCC(C)(C(=O)O)O2 (centres undefined) = 78.4%
COc1ccc(Cn2cc(CNC(=O)[C@@H](C)CC[C@H]3O[C@H]4C[C@H]5[C@@H]6CC[C@@H]7C[C@@H](OCc8ccccc8)CC[C@]7(C)[C@H]6CC[C@]5(C)[C@H]4[C@@H]3C)nn2)cc1 = 63.1%

With those in mind, consider the next compound.
Lookup result for "C[C@H]1CC[C@@]2(OC1)O[C@H]1C[C@H]3[C@@H]4CC[C@@H]5C[C@@H](O)CC[C@]5(C)[C@H]4CC[C@]3(C)[C@H]1[C@@H]2C" ; measured viability at 50 µM: 71.3%

---

Target: Amyloid-beta precursor protein (Homo sapiens, UniProt P05067)
Sequence (P05067 whole entry): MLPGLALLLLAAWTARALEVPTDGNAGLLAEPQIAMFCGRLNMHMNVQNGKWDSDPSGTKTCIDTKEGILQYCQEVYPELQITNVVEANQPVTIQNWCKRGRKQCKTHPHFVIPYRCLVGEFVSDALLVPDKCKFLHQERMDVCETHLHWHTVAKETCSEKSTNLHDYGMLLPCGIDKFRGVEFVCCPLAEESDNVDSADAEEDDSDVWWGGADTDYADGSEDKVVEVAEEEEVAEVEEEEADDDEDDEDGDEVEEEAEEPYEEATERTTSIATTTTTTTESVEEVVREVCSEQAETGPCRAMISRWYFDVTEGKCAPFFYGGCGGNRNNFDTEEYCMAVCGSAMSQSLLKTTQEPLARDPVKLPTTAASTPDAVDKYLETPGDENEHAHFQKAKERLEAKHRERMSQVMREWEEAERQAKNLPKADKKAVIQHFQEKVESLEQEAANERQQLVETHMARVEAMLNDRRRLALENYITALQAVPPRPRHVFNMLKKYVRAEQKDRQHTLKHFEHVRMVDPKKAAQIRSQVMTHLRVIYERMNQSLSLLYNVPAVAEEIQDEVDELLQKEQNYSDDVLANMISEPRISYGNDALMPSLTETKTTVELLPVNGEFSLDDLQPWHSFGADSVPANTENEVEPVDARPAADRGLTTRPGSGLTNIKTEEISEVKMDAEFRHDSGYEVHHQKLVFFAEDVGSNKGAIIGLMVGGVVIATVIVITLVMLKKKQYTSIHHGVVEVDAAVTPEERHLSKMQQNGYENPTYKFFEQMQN
Experiment: Inhibition of amyloid beta (1 to 42) (unknown origin) self-aggregation at 20 uM after 24 hrs by thioflavin-T fluorescence assay relative to control
Each entry below lists one item and its recorded inhibition value.
Include the unit after the number when you answer.

C[C@H]1[C@H]2[C@H](C[C@H]3[C@@H]4CC[C@@H]5C[C@@H](OCc6ccccc6)CC[C@]5(C)[C@H]4CC[C@]23C)O[C@@H]1CC[C@H](C)C(=O)NCc1cn(Cc2cscn2)nn1 = 75.1%
CCCn1cc(CNC(=O)[C@@H](C)CC[C@H]2O[C@H]3C[C@H]4[C@@H]5CC[C@@H]6C[C@@H](OCc7ccccc7)CC[C@]6(C)[C@H]5CC[C@]4(C)[C@H]3[C@@H]2C)nn1 = 21.8%
COc1ccc(Cn2cc(CNC(=O)[C@@H](C)CC[C@H]3O[C@H]4C[C@H]5[C@@H]6CC[C@@H]7C[C@@H](OCc8ccccc8)CC[C@]7(C)[C@H]6CC[C@]5(C)[C@H]4[C@@H]3C)nn2)cc1 = 84.7%
C[C@H]1[C@H]2[C@H](C[C@H]3[C@@H]4CC[C@@H]5C[C@@H](OCc6ccccc6)CC[C@]5(C)[C@H]4CC[C@]23C)O[C@@H]1CC[C@H](C)C(=O)NCc1cn(Cc2ccncc2)nn1 = 20.8%

Kindly review the next compound as well.
Measured inhibition of "COc1cccc(Cn2cc(CNC(=O)[C@@H](C)CC[C@H]3O[C@H]4C[C@H]5[C@@H]6CC[C@@H]7C[C@@H](OCc8ccccc8)CC[C@]7(C)[C@H]6CC[C@]5(C)[C@H]4[C@@H]3C)nn2)c1" : 64.8%
